Numbers sourced from paper PMC12439480.

assay_details: in vivo
Design: species or system BALB/c nude mice
settings: female, BALB/c nude, mouse, iv, 3.7 MBq, total radioactivity, Tumor-to-Lung ratio (T/B)
Numbered stars: 1 amine (or outer) side, 2 acyl side, 3 side chain; on linkers, the order of the positions; unused ones are H or OH. Square brackets hold non-standard residues; d marks the D form. Peptide text beside a SMILES is read from it. * marks the point of attachment. DOTA = O=C(O)CN1CCN(CC(=O)O)CCN(CC(=O)*)CCN(CC(=O)O)CC1; d(γGlu) = O=C(O)[C@@H](CCC(=O)[*:2])N[*:1]; 1Nal = N[C@@H](Cc1cccc2ccccc12)C(=O)O; NMeNle = CCCC[C@H](NC)C(=O)O; PEG4 = NCCOCCOCCOCCOCCC(=O)O
reported_endpoint: tissue to tissue ratio at 0.5 h
Just the number, please.

IN: What does the record list as tissue to tissue ratio at 0.5 h for CCCC[C@@H](C(=O)N[C@@H](CC(=O)O)C(=O)N[C@@H](Cc1cccc2ccccc12)C(N)=O)N(C)C(=O)[C@H](Cc1c[nH]c2ccccc12)NC(=O)CCOCCOCCOCCOCCNC(=O)CC[C@@H](NC(=O)CN1CCN(CC(=O)O)CCN(CC(=O)O)CCN(CC(=O)O)CC1)C(=O)O [[68Ga]Ga-DOTA-CCK-66, metal not drawn, reference compound] ({DOTA-d(γGlu)-PEG4}-W[NMeNle]D[1Nal]-NH2) ?
OUT: 3.22

###

assay_details: in vivo
Design: species or system BALB/c nude mice
settings: mouse, Heart uptake
Numbered stars: 1 amine (or outer) side, 2 acyl side, 3 side chain; on linkers, the order of the positions; unused ones are H or OH. Square brackets hold non-standard residues; d marks the D form. Peptide text beside a SMILES is read from it. * marks the point of attachment. DOTA = O=C(O)CN1CCN(CC(=O)O)CCN(CC(=O)*)CCN(CC(=O)O)CC1; d(γGlu) = O=C(O)[C@@H](CCC(=O)[*:2])N[*:1]; 1Nal = N[C@@H](Cc1cccc2ccccc12)C(=O)O; NMeNle = CCCC[C@H](NC)C(=O)O; PEG4 = NCCOCCOCCOCCOCCC(=O)O
reported_endpoint: tissue uptake at 2 h

IN: Reported tissue uptake at 2 h for CCCC[C@@H](C(=O)N[C@@H](CC(=O)O)C(=O)N[C@@H](Cc1cccc2ccccc12)C(N)=O)N(C)C(=O)[C@H](Cc1c[nH]c2ccccc12)NC(=O)CCOCCOCCOCCOCCNC(=O)CC[C@@H](NC(=O)CN1CCN(CC(=O)O)CCN(CC(=O)O)CCN(CC(=O)O)CC1)C(=O)O [[68Ga]Ga-DOTA-CCK-66, metal not drawn, reference compound] ({DOTA-d(γGlu)-PEG4}-W[NMeNle]D[1Nal]-NH2) : what is it?
OUT: 0.48 %ID/g

###

assay_details: in vivo
Set-up: species or system BALB/c nude mice
settings: female, BALB/c nude, mouse, iv, 3.7 MBq, total radioactivity, Tumor-to-Kidney ratio (T/B)
Numbered stars: 1 amine (or outer) side, 2 acyl side, 3 side chain; on linkers, the order of the positions; unused ones are H or OH. Square brackets hold non-standard residues; d marks the D form. Peptide text beside a SMILES is read from it. * marks the point of attachment. DOTA = O=C(O)CN1CCN(CC(=O)O)CCN(CC(=O)*)CCN(CC(=O)O)CC1; d(γGlu) = O=C(O)[C@@H](CCC(=O)[*:2])N[*:1]; 1Nal = N[C@@H](Cc1cccc2ccccc12)C(=O)O; NMeNle = CCCC[C@H](NC)C(=O)O; PEG4 = NCCOCCOCCOCCOCCC(=O)O
reported_endpoint: tissue to tissue ratio at 2 h
Write the value as a bare number.

IN: State the recorded tissue to tissue ratio at 2 h for this entry: CCCC[C@@H](C(=O)N[C@@H](CC(=O)O)C(=O)N[C@@H](Cc1cccc2ccccc12)C(N)=O)N(C)C(=O)[C@H](Cc1c[nH]c2ccccc12)NC(=O)CCOCCOCCOCCOCCNC(=O)CC[C@@H](NC(=O)CN1CCN(CC(=O)O)CCN(CC(=O)O)CCN(CC(=O)O)CC1)C(=O)O [[68Ga]Ga-DOTA-CCK-66, metal not drawn, reference compound] ({DOTA-d(γGlu)-PEG4}-W[NMeNle]D[1Nal]-NH2)
OUT: 1.67
